Provenance of the data: ChEMBL document CHEMBL1629412

# systemName: UniProt:Q7ZJM1
# protocolDetails: Inhibition of HIV-1 Integrase at 1:50 protein/compound molar ratio
# conditionDescription: concentration not given here
Numbered stars: 1 amine (or outer) side, 2 acyl side, 3 side chain; on linkers, the order of the positions; unused ones are H or OH. Bridge positions count the residues as written; N and C are the ends. Square brackets hold non-standard residues; d marks the D form. Peptide text beside a SMILES is read from it. X2 = O=C(c1ccccc1-c1c2ccc(=O)cc-2oc2cc(O)ccc12)N(CCC(=O)[*:1])C(=O)[*:2]; X1 = O=C(c1ccccc1-c1c2ccc(=O)cc-2oc2cc(O)ccc12)N(CC(=O)[*:1])C(=O)[*:2]; N(6-aminohexyl)Gly = O=C(CN(CCCCCCN[*:3])[*:1])[*:2]; NGly(3-aminopropyl) = O=C(CN(CCCN[*:3])[*:1])[*:2]
observable: inhibition

Request: Reported inhibition, molecule CC[C@H](C)[C@@H]1NC(=O)[C@H](CCCCN)NC(=O)[C@H](CC(C)C)NC(=O)[C@H](CO)NC(=O)[C@H](CC(N)=O)NC(=O)[C@H](Cc2c[nH]c3ccccc23)NC(=O)CN(C(=O)c2ccccc2-c2c3ccc(=O)cc-3oc3cc(O)ccc23)C(=O)NCCCCCCN(CC(N)=O)C(=O)[C@H](C(C)C)NC(=O)[C@H](CC(=O)O)NC(=O)[C@H](CC(C)C)NC(=O)[C@H](CC(N)=O)NC(=O)[C@H](CC(=O)O)NC1=O (WNSLKIDNLDV[N(6-aminohexyl)Gly]-NH2; linker N-12 via X1) : ____
Result: 48%

Request: And CC[C@H](C)[C@@H]1NC(=O)[C@H](CCCCN)NC(=O)[C@H](CC(C)C)NC(=O)[C@H](CO)NC(=O)[C@H](CC(N)=O)NC(=O)[C@H](Cc2c[nH]c3ccccc23)NC(=O)CCN(C(=O)c2ccccc2-c2c3ccc(=O)cc-3oc3cc(O)ccc23)C(=O)NCCCN(CC(N)=O)C(=O)[C@H](C(C)C)NC(=O)[C@H](CC(=O)O)NC(=O)[C@H](CC(C)C)NC(=O)[C@H](CC(N)=O)NC(=O)[C@H](CC(=O)O)NC1=O (WNSLKIDNLDV[NGly(3-aminopropyl)]-NH2; linker N-12 via X2) ?
Result: 19%

====

# systemName: Human immunodeficiency virus type 1 integrase (Human immunodeficiency virus 1) (UniProt Q7ZJM1)
# Sequence (Q7ZJM1 as listed by the source): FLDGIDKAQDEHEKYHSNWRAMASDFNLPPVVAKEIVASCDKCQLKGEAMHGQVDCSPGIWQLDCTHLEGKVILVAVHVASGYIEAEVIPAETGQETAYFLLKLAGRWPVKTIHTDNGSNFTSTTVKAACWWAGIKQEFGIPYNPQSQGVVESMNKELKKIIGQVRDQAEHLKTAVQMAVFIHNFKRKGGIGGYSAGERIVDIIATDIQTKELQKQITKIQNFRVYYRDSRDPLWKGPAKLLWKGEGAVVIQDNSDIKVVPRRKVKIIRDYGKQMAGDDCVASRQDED
# protocolDetails: Binding affinity to HIV-1 Integrase by FRET assay
Numbered stars: 1 amine (or outer) side, 2 acyl side, 3 side chain; on linkers, the order of the positions; unused ones are H or OH. Bridge positions count the residues as written; N and C are the ends. Square brackets hold non-standard residues; d marks the D form. Peptide text beside a SMILES is read from it. X2 = O=C(c1ccccc1-c1c2ccc(=O)cc-2oc2cc(O)ccc12)N(CCC(=O)[*:1])C(=O)[*:2]; X1 = O=C(c1ccccc1-c1c2ccc(=O)cc-2oc2cc(O)ccc12)N(CC(=O)[*:1])C(=O)[*:2]; N(6-aminohexyl)Gly = O=C(CN(CCCCCCN[*:3])[*:1])[*:2]
observable: Activity
Express the reported value numerically, then name its unit.

Request: For the compound shown here, CC[C@H](C)[C@@H]1NC(=O)[C@H](CCCCN)NC(=O)[C@H](CC(C)C)NC(=O)[C@H](CO)NC(=O)[C@H](CC(N)=O)NC(=O)[C@H](Cc2c[nH]c3ccccc23)NC(=O)CN(C(=O)c2ccccc2-c2c3ccc(=O)cc-3oc3cc(O)ccc23)C(=O)NCCCCCCN(CC(N)=O)C(=O)[C@H](C(C)C)NC(=O)[C@H](CC(=O)O)NC(=O)[C@H](CC(C)C)NC(=O)[C@H](CC(N)=O)NC(=O)[C@H](CC(=O)O)NC1=O (WNSLKIDNLDV[N(6-aminohexyl)Gly]-NH2; linker N-12 via X1) , give the reported Activity.
Result: 3.3 µM

Request: Let us now turn to CC[C@H](C)[C@@H]1NC(=O)[C@H](CCCCN)NC(=O)[C@H](CC(C)C)NC(=O)[C@H](CO)NC(=O)[C@H](CC(N)=O)NC(=O)[C@H](Cc2c[nH]c3ccccc23)NC(=O)CCN(C(=O)c2ccccc2-c2c3ccc(=O)cc-3oc3cc(O)ccc23)C(=O)NCCCCCCN(CC(N)=O)C(=O)[C@H](C(C)C)NC(=O)[C@H](CC(=O)O)NC(=O)[C@H](CC(C)C)NC(=O)[C@H](CC(N)=O)NC(=O)[C@H](CC(=O)O)NC1=O (WNSLKIDNLDV[N(6-aminohexyl)Gly]-NH2; linker N-12 via X2)
Result: 3.8 µM

====

# systemName: Human immunodeficiency virus type 1 integrase (Human immunodeficiency virus 1) (UniProt Q7ZJM1)
# protocolDetails: Inhibition of HIV-1 Integrase at 1:50 protein/compound molar ratio
# conditionDescription: concentration not given here
Numbered stars: 1 amine (or outer) side, 2 acyl side, 3 side chain; on linkers, the order of the positions; unused ones are H or OH. Bridge positions count the residues as written; N and C are the ends. Square brackets hold non-standard residues; d marks the D form. Peptide text beside a SMILES is read from it. X2 = O=C(c1ccccc1-c1c2ccc(=O)cc-2oc2cc(O)ccc12)N(CCC(=O)[*:1])C(=O)[*:2]; X1 = O=C(c1ccccc1-c1c2ccc(=O)cc-2oc2cc(O)ccc12)N(CC(=O)[*:1])C(=O)[*:2]; NGly(3-aminopropyl) = O=C(CN(CCCN[*:3])[*:1])[*:2]; Nlys = NCCCCNCC(=O)O
Exercise: for every item that follows, state its recorded inhibition.
Just the number in %, nothing appended.

Request: Need inhibition of CC[C@H](C)[C@@H]1NC(=O)[C@H](CCCCN)NC(=O)[C@H](CC(C)C)NC(=O)[C@H](CO)NC(=O)[C@H](CC(N)=O)NC(=O)[C@H](Cc2c[nH]c3ccccc23)NC(=O)CN(C(=O)c2ccccc2-c2c3ccc(=O)cc-3oc3cc(O)ccc23)C(=O)NCCCN(CC(N)=O)C(=O)[C@H](C(C)C)NC(=O)[C@H](CC(=O)O)NC(=O)[C@H](CC(C)C)NC(=O)[C@H](CC(N)=O)NC(=O)[C@H](CC(=O)O)NC1=O (WNSLKIDNLDV[NGly(3-aminopropyl)]-NH2; linker N-12 via X1) , thanks.
Result: 44

Request: Repeat for the following molecule: CC[C@H](C)[C@@H]1NC(=O)[C@H](CCCCN)NC(=O)[C@H](CC(C)C)NC(=O)[C@H](CO)NC(=O)[C@H](CC(N)=O)NC(=O)[C@H](Cc2c[nH]c3ccccc23)NC(=O)CCN(C(=O)c2ccccc2-c2c3ccc(=O)cc-3oc3cc(O)ccc23)C(=O)NCCCCN(CC(N)=O)C(=O)[C@H](C(C)C)NC(=O)[C@H](CC(=O)O)NC(=O)[C@H](CC(C)C)NC(=O)[C@H](CC(N)=O)NC(=O)[C@H](CC(=O)O)NC1=O (WNSLKIDNLDV[Nlys]-NH2; linker N-12 via X2)
Result: 65

====

Could you please report measured Activity for the items listed next?
# systemName: Human immunodeficiency virus type 1 integrase (Human immunodeficiency virus 1)
# protocolDetails: Binding affinity to HIV-1 Integrase by FRET assay
Numbered stars: 1 amine (or outer) side, 2 acyl side, 3 side chain; on linkers, the order of the positions; unused ones are H or OH. Bridge positions count the residues as written; N and C are the ends. Square brackets hold non-standard residues; d marks the D form. Peptide text beside a SMILES is read from it. X1 = O=C(c1ccccc1-c1c2ccc(=O)cc-2oc2cc(O)ccc12)N(CC(=O)[*:1])C(=O)[*:2]; N(2-Aminoethyl)Gly = O=C(CN(CCN[*:3])[*:1])[*:2]; Nlys = NCCCCNCC(=O)O
Quick reminder: number only, in µM, skip the unit.

Request: Request the reported Activity associated with CC[C@H](C)[C@@H]1NC(=O)[C@H](CCCCN)NC(=O)[C@H](CC(C)C)NC(=O)[C@H](CO)NC(=O)[C@H](CC(N)=O)NC(=O)[C@H](Cc2c[nH]c3ccccc23)NC(=O)CN(C(=O)c2ccccc2-c2c3ccc(=O)cc-3oc3cc(O)ccc23)C(=O)NCCN(CC(N)=O)C(=O)[C@H](C(C)C)NC(=O)[C@H](CC(=O)O)NC(=O)[C@H](CC(C)C)NC(=O)[C@H](CC(N)=O)NC(=O)[C@H](CC(=O)O)NC1=O (WNSLKIDNLDV[N(2-Aminoethyl)Gly]-NH2; linker N-12 via X1)
Result: 5.2

Request: Item: CC[C@H](C)[C@@H]1NC(=O)[C@H](CCCCN)NC(=O)[C@H](CC(C)C)NC(=O)[C@H](CO)NC(=O)[C@H](CC(N)=O)NC(=O)[C@H](Cc2c[nH]c3ccccc23)NC(=O)CN(C(=O)c2ccccc2-c2c3ccc(=O)cc-3oc3cc(O)ccc23)C(=O)NCCCCN(CC(N)=O)C(=O)[C@H](C(C)C)NC(=O)[C@H](CC(=O)O)NC(=O)[C@H](CC(C)C)NC(=O)[C@H](CC(N)=O)NC(=O)[C@H](CC(=O)O)NC1=O (WNSLKIDNLDV[Nlys]-NH2; linker N-12 via X1)
Result: 5
